# testedSystem: Histone-arginine methyltransferase CARM1 (Homo sapiens)
# measurementDescription: Inhibition of human PRMT4 using histone H3 as substrate and SAM as cofactor at 10 uM by radiometric HotSpot assay relative to control
measurementName: inhibition

Solved cases below.
> print(dat)
                          compoundstructure                              testedsystem  valuereported
1  Nc1ccc(-c2ccc(CNC(=O)NCCSC[C@H]3O[C@@H](n4cnc5c(N)ncnc54)[C@H](O)[C@@H]3O)cc2)cc1  Histone-arginine methyltransferase CARM1 (Homo sapiens)            27%
2  N=C(NCCCSC[C@H]1O[C@@H](n2cnc3c(N)ncnc32)[C@H](O)[C@@H]1O)Nc1cccc(-c2ccc(F)nc2)c1  Histone-arginine methyltransferase CARM1 (Homo sapiens)          > 90%
3  Nc1ncnc2c1ncn2[C@@H]1O[C@H](CSCCCNCc2cccc(-c3ccoc3)c2)[C@@H](O)[C@H]1O  Histone-arginine methyltransferase CARM1 (Homo sapiens)          > 90%
4  N=C(NCCSC[C@H]1O[C@@H](n2cnc3c(N)ncnc32)[C@H](O)[C@@H]1O)Nc1cccc(I)c1  Histone-arginine methyltransferase CARM1 (Homo sapiens)          > 90%
5  Nc1ncnc2c1ncn2[C@@H]1O[C@H](CSCCNC(=O)Nc2ccccc2)[C@@H](O)[C@H]1O  Histone-arginine methyltransferase CARM1 (Homo sapiens)            27%

Asked: For `Nc1ncnc2c1ncn2[C@@H]1O[C@H](CSCCNCc2cccc(-c3ccncc3)c2)[C@@H](O)[C@H]1O` , what is its reported inhibition?
Given back: > 90%

Asked: Repeat with `Nc1ncnc2c1ncn2[C@@H]1O[C@H](CSCCCNC(=O)NCCc2ccccc2)[C@@H](O)[C@H]1O`
Given back: 27%

Asked: How about `Nc1ncnc2c1ncn2[C@@H]1O[C@H](CSCCNC(=O)NCc2ccc(-c3ccccc3O)cc2)[C@@H](O)[C@H]1O` ?
Given back: 27%

Asked: Same again, this time with `Nc1ncnc2c1ncn2[C@@H]1O[C@H](CSCCNCc2cccc(-c3cccc4cn[nH]c34)c2)[C@@H](O)[C@H]1O`
Given back: > 90%
